Ref: the DeepSol protein solubility set

assay: soluble on expression in E. coli; label from the status in PepcDB or PDB records

sequence_text: MAHNNYLDLEMLFNECNAQHYENLGMFFKWLQQFAAHHEDPKITIKDFKGDKTSGEMILHVNTFTLFKYRQEFDMKVSALNDNGLGWKILFVDRSLGCN
soluble on expression in E. coli: not soluble

sequence_text: MPKATFYTHVAQVPIFTCRLIARAIRDGGRILVWSDSFGQLQELDKMLWQYEAESFIPHEIWETEEAMPSEPSVLLACGGNLPRIPEGMTVLNLSDGFWNTAPVLPARVLEIVGNSLEELADARERFTAYRRSGFAIEHHGMEGKA
soluble on expression in E. coli: not soluble

sequence_text: MSLKKAIAYMRFSSPGQMSGDSLNRQRRLIAEWLKVNSDYYLDTITYEDLGLSAFKGKHAQSGAFSEFLDAIEHGYILPGTTLLVESLDRLSREKVGEAIERLKLILNHGIDVITLCDNTVYNIDSLNEGHHHHHH
soluble on expression in E. coli: not soluble
